condition-set: in water, 298.15 K
# solubility (mole fraction) per entry
Give a plain numeric answer without units written out.

Enquiry: Quick check: solubility (mole fraction) of Nc1ccc(S(=O)(=O)Nc2ccc([N+](=O)[O-])cc2)cc1 ?
Return: 3.64e-06

Enquiry: N#Cc1ccc(NS(=O)(=O)c2ccc(N)cc2)cc1 ?
Return: 5.47e-06

Enquiry: Same question, O=[N+]([O-])c1ccc(NS(=O)(=O)c2ccccc2)cc1 this time
Return: 1.85e-06

---

condition-set: in n-octanol, 298.15 K
Listing of entries alongside the reported solubility (mole fraction).

Enquiry: Suppose we examine the compound N#Cc1ccc(NS(=O)(=O)c2ccc(N)cc2)cc1 ; what solubility (mole fraction) value has been reported?
Return: 0.00129

Enquiry: Consider next the compound O=[N+]([O-])c1ccc(NS(=O)(=O)c2ccccc2)cc1 in the same way.
Return: 0.0116

Enquiry: Same thing, different compound: Nc1ccc(S(=O)(=O)Nc2ccc([N+](=O)[O-])cc2)cc1
Return: 0.003

---

Listed compounds paired with reported solubility (mole fraction)
condition-set: in water, 315.15 K
Lab note: record the figure alone, no unit after it.

Solved cases (2 shown):
O=[N+]([O-])c1ccc(NS(=O)(=O)c2ccccc2)cc1 3.71e-06
N#Cc1ccc(NS(=O)(=O)c2ccc(N)cc2)cc1 1.45e-05

Enquiry: // query solubility (mole fraction) value for entry Nc1ccc(S(=O)(=O)Nc2ccc([N+](=O)[O-])cc2)cc1
Return: 8.29e-06

---

Each entry below lists one item and its recorded solubility (mole fraction) value.
condition-set: in water, 303.15 K

In the examples that follow, each entry is paired with its recorded solubility (mole fraction).
O=[N+]([O-])c1ccc(NS(=O)(=O)c2ccccc2)cc1 2.32e-06
N#Cc1ccc(NS(=O)(=O)c2ccc(N)cc2)cc1 7.58e-06

Here is another compound to look at.
Enquiry: Need solubility (mole fraction), item Nc1ccc(S(=O)(=O)Nc2ccc([N+](=O)[O-])cc2)cc1
Return: 4.88e-06

---

condition-set: in water, 293.15 K
observable: solubility (mole fraction)
Please reply with the value in numeric form only.

Consider the worked cases shown below.
O=[N+]([O-])c1ccc(NS(=O)(=O)c2ccccc2)cc1 1.45e-06
N#Cc1ccc(NS(=O)(=O)c2ccc(N)cc2)cc1 4.11e-06

Please turn your attention to the following entry.
Enquiry: Please look up its solubility (mole fraction): Nc1ccc(S(=O)(=O)Nc2ccc([N+](=O)[O-])cc2)cc1
Return: 2.72e-06

---

condition-set: in n-octanol, 293.15 K
observable: solubility (mole fraction)
Please reply with the value in numeric form only.

Would you please look over these solved cases?
N#Cc1ccc(NS(=O)(=O)c2ccc(N)cc2)cc1 0.00112
O=[N+]([O-])c1ccc(NS(=O)(=O)c2ccccc2)cc1 0.00958

Enquiry: Data request, read-out solubility (mole fraction), for Nc1ccc(S(=O)(=O)Nc2ccc([N+](=O)[O-])cc2)cc1
Return: 0.0026

---

condition-set: in n-octanol, 303.15 K
# key: entry, value: solubility (mole fraction)
Just the number, please.

The examples below pair each entry with its known result.
O=[N+]([O-])c1ccc(NS(=O)(=O)c2ccccc2)cc1 0.0139
N#Cc1ccc(NS(=O)(=O)c2ccc(N)cc2)cc1 0.00158

Next compound, solubility (mole fraction) to be filled in.
Enquiry: Query: solubility (mole fraction); subject: Nc1ccc(S(=O)(=O)Nc2ccc([N+](=O)[O-])cc2)cc1
Return: 0.00361
